B1: library; numbered along this chain (parent)
chain: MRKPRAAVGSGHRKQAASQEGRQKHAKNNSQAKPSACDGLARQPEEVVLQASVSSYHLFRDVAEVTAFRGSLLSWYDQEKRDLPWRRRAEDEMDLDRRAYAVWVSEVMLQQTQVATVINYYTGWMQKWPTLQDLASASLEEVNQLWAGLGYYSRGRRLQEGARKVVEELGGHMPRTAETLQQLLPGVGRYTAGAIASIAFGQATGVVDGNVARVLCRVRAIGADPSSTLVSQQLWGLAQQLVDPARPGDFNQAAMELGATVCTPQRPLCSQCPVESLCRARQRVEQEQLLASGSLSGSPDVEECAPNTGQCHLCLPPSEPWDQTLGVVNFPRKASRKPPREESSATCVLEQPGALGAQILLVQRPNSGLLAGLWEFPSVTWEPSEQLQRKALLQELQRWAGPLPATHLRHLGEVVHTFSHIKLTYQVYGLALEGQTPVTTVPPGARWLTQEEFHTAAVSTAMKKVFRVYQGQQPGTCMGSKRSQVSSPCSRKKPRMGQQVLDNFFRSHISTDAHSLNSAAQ

Variants of: B1
protocol.notes: 8OG:A repair function score (normalized; synonymous = 0, nonsense = -1) (normalized log-likelihood score); higher = more repair activity (WT-like);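 further: cells sorted at 72 h after reporter transfection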
condition.context: with 8OG:A DNA repair reporter (GFP) in HEK-293 MUTYH KO cells
property.measured: 8OG:A repair function score

Sample records with 8OG:A repair function score:
> print(dat)
   sequence.change  measured
1            R389A    -0.241
2            W321T    -0.301
3            G258E     -1.27
4            A400Q   -0.0826
5            T228V     0.153

Look at this variant and give its reported 8OG:A repair function score. W85M -0.682

Return reported 8OG:A repair function score; argument: Q484A 0.00718
